Assay: Microsome stability assay, mouse liver microsomes
Assay type: in vitro ADME
Settings: mouse, mouse liver microsomes, pooled; 1 μM compound, 0.5 mg/mL microsomal protein, NADPH, 37° C.; read-out: Microsome Stability Mouse liver microsomes Cl
outcome_measure: microsomal CLint at 1 h, 1 µM (µL/min/mg)

Solved cases (5 shown):
| compound | outcome_measure | value_observed |
| --- | --- | --- |
| CCC1Cc2cc(OC)ccc2C(NC(=O)c2ccc(C(F)(F)F)[nH]c2=O)C1 (centres unmarked) [Compound 390] | microsomal CLint at 1 h, 1 µM | 16.8 |
| CC1CCc2cc(Cl)ccc2C1NC(=O)c1ccc(C(F)(F)F)[nH]c1=O (centres unmarked) [Compound 293] | microsomal CLint at 1 h, 1 µM | 37.9 |
| CCC1Cc2cc(C)ccc2C(NC(=O)c2ccc(C(F)(F)F)[nH]c2=O)C1 (centres unmarked) [Compound 388] | microsomal CLint at 1 h, 1 µM | 47.4 |
| Cc1ccc2c(c1)OCCC2NC(=O)c1ccc(C(F)(F)F)[nH]c1=O (centres unmarked) [Compound 441] | microsomal CLint at 1 h, 1 µM | 10.2 |
| CCCC1CCc2cc(C)ccc2C1NC(=O)c1ccc(C(F)(F)F)[nH]c1=O (centres unmarked) [Compound 285] | microsomal CLint at 1 h, 1 µM | 70.7 |

a = CCCC1CCc2cc(Cl)ccc2C1NC(=O)c1ccc(C(F)(F)F)[nH]c1=O (centres unmarked) [Compound 286]
b = Cc1ccc2c(c1)Oc1cccc(Cl)c1C2NC(=O)c1ccc(C(F)(F)F)[nH]c1=O (centres unmarked) [Compound 190]
c = O=C(NC1c2ccc(Cl)cc2Oc2cccc(Cl)c21)c1ccc(C(F)(F)F)[nH]c1=O (centres unmarked) [Compound 51]
Sort the compounds on microsomal CLint at 1 h, 1 µM; start with the lowest figure. I'd appreciate it if you listed the labels in the requested order. c, b, a
